Recorded values, source patent US20230406883A1.

# assayed target: hNK3R (Homo sapiens, UniProt P29371)
# Construct: host or cells: COS-7
# Sequence (P29371 whole entry): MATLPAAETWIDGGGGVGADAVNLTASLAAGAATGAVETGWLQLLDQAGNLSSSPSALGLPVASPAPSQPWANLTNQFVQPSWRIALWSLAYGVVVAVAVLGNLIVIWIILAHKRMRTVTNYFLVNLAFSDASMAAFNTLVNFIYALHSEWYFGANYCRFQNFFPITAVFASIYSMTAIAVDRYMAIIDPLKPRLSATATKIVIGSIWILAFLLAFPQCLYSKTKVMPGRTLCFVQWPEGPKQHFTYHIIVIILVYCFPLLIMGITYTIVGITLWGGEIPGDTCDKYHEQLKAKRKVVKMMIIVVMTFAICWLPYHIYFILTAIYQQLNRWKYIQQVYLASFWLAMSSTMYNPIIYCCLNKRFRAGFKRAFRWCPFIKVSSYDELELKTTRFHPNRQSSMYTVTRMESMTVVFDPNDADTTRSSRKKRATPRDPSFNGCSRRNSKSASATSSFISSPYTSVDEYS
# protocol: IP3 assay (inositol trisphosphate, 3H-myoinositol) in transiently transfected COS-7 cells
# Format: cell-based
# recorded conditions: COS-7 cells; figure legends: percent of 10^-6 M NKA
Numbered stars: 1 amine (or outer) side, 2 acyl side, 3 side chain; on linkers, the order of the positions; unused ones are H or OH. Square brackets hold non-standard residues; d marks the D form. Peptide text beside a SMILES is read from it. * marks the point of attachment. C18 diacid = O=C(O)CCCCCCCCCCCCCCCCC(=O)*; Phe(4-F) = N[C@@H](Cc1ccc(F)cc1)C(=O)O; γGlu = O=C(O)[C@H](CCC(=O)[*:2])N[*:1]; NMeL = CN[C@@H](CC(C)C)C(=O)O; hSer = N[C@@H](CCO)C(=O)O; Nle = CCCC[C@H](N)C(=O)O; AEEA = NCCOCCOCC(=O)O; Aib = CC(C)(N)C(=O)O
readout kind: hNK3, IP3 Efficacy (%)
Answer in %, number only, no unit symbol.

Below are worked cases with known answers.
compound	assayed target	hNK3, IP3 Efficacy (%)
COCC[C@H](NC(=O)[C@H](CC(C)C)N(C)C(=O)CNC(=O)[C@@H](NC(=O)[C@H](Cc1ccccc1)NC(=O)[C@H](CCCCN)NC(=O)[C@H](CC(=O)O)NC(=O)COCCOCCNC(=O)COCCOCCNC(=O)CC[C@H](NC(=O)CCCCCCCCCCCCCCCCC(=O)O)C(=O)O)C(C)C)C(N)=O [compound 384, *Asp;Lys;Phe;Val;Gly;NmLeu;Metox;NH2] ({C18 diacid-γGlu-AEEA-AEEA}-DKFVG[NMeL][hSer](Me)-NH2)	hNK3R (Homo sapiens, UniProt P29371)	85
CCCC[C@H](NC(=O)[C@H](CC(C)C)NC(=O)C(C)(C)NC(=O)[C@@H](NC(=O)[C@H](Cc1ccccc1)NC(=O)[C@H](CCCCN)NC(=O)[C@H](CC(=O)O)NC(=O)COCCOCCNC(=O)COCCOCCNC(=O)CC[C@H](NC(=O)CCCCCCCCCCCCCCCCC(=O)O)C(=O)O)C(C)C)C(N)=O [compound 373, *Asp;Lys;Phe;Val;Aib;Leu;Nle;NH2] ({C18 diacid-γGlu-AEEA-AEEA}-DKFV[Aib]L[Nle]-NH2)	hNK3R (Homo sapiens, UniProt P29371)	0
CCCC[C@H](NC(=O)[C@H](CC(C)C)NC(=O)CNC(=O)[C@@H](NC(=O)[C@H](Cc1ccccc1)NC(=O)[C@H](CO)NC(=O)[C@H](CC(=O)O)NC(=O)[C@@H](NC(=O)[C@H](CCCCN)NC(=O)COCCOCCNC(=O)COCCOCCNC(=O)CC[C@H](NC(=O)CCCCCCCCCCCCCCCCC(=O)O)C(=O)O)[C@@H](C)O)C(C)C)C(N)=O [compound 308, *Lys;Thr;Asp;Ser;Phe;Val;Gly;Leu;Nle;NH2]	hNK3R (Homo sapiens, UniProt P29371)	93
COCC[C@H](NC(=O)[C@H](CC(C)C)N(C)C(=O)CNC(=O)[C@@H](NC(=O)[C@H](Cc1ccc(O)cc1)NC(=O)[C@H](CCCCN)NC(=O)[C@H](CCC(=O)O)NC(=O)COCCOCCNC(=O)COCCOCCNC(=O)CC[C@H](NC(=O)CCCCCCCCCCCCCCCCC(=O)O)C(=O)O)C(C)C)C(N)=O [compound 382, *Glu;Lys;Tyr;Val;Gly;NmLeu;Metox;NH2] ({C18 diacid-γGlu-AEEA-AEEA}-EKYVG[NMeL][hSer](Me)-NH2)	hNK3R (Homo sapiens, UniProt P29371)	20
CC(C)C[C@@H](C(=O)N[C@@H](Cc1ccccc1)C(N)=O)N(C)C(=O)CNC(=O)[C@@H](NC(=O)[C@H](Cc1ccc(O)cc1)NC(=O)[C@H](CCCCN)NC(=O)[C@H](CC(=O)O)NC(=O)COCCOCCNC(=O)COCCOCCNC(=O)CC[C@H](NC(=O)CCCCCCCCCCCCCCCCC(=O)O)C(=O)O)C(C)C [compound 353, *Asp;Lys;Tyr;Val;Gly;NmLeu;Phe;NH2] ({C18 diacid-γGlu-AEEA-AEEA}-DKYVG[NMeL]F-NH2)	hNK3R (Homo sapiens, UniProt P29371)	0
CCCC[C@H](NC(=O)[C@H](CC(C)C)N(C)C(=O)CNC(=O)[C@H](CCCNC(=N)N)NC(=O)[C@H](Cc1ccccc1)NC(=O)[C@H](CCCCN)NC(=O)[C@H](CCC(=O)O)NC(=O)COCCOCCNC(=O)COCCOCCNC(=O)CC[C@H](NC(=O)CCCCCCCCCCCCCCCCC(=O)O)C(=O)O)C(N)=O [compound 315, *Glu;Lys;Phe;Arg;Gly;NmLeu;Nle;NH2] ({C18 diacid-γGlu-AEEA-AEEA}-EKFRG[NMeL][Nle]-NH2)	hNK3R (Homo sapiens, UniProt P29371)	0

Ask | For the compound shown here, CCCC[C@H](NC(=O)[C@H](CC(C)C)N(C)C(=O)CNC(=O)[C@@H](NC(=O)[C@H](Cc1ccccc1)NC(=O)[C@H](CCCCN)NC(=O)[C@H](CC(=O)O)NC(=O)COCCOCCNC(=O)COCCOCCNC(=O)CC[C@H](NC(=O)CCCCCCCCCCCCCCCCC(=O)O)C(=O)O)[C@@H](C)O)C(N)=O [compound 387, *Asp;Lys;Phe;Thr;Gly;NmLeu;Nle;NH2] ({C18 diacid-γGlu-AEEA-AEEA}-DKFTG[NMeL][Nle]-NH2) , give the reported hNK3, IP3 Efficacy.
Reply | 100

Ask | Please report the recorded hNK3, IP3 Efficacy for CCCC[C@H](NC(=O)[C@H](CC(C)C)N(C)C(=O)CNC(=O)[C@@H](NC(=O)[C@H](Cc1ccccc1)NC(=O)[C@H](CCCNC(=N)N)NC(=O)[C@H](CC(=O)O)NC(=O)COCCOCCNC(=O)COCCOCCNC(=O)CC[C@H](NC(=O)CCCCCCCCCCCCCCCCC(=O)O)C(=O)O)C(C)C)C(N)=O [compound 306, *Asp;Arg;Phe;Val;Gly;NmLeu;Nle;NH2] ({C18 diacid-γGlu-AEEA-AEEA}-DRFVG[NMeL][Nle]-NH2) .
Reply | 65

Ask | Fill in the blank: the reported hNK3, IP3 Efficacy of CC(C)C[C@@H](C(=O)N[C@@H](Cc1ccc(F)cc1)C(N)=O)N(C)C(=O)CNC(=O)[C@@H](NC(=O)[C@H](Cc1ccc(O)cc1)NC(=O)[C@H](CCCCN)NC(=O)[C@H](CC(=O)O)NC(=O)COCCOCCNC(=O)COCCOCCNC(=O)CC[C@H](NC(=O)CCCCCCCCCCCCCCCCC(=O)O)C(=O)O)C(C)C [compound 369, *Asp;Lys;Tyr;Val;Gly;NmLeu;4-F-Phe;NH2] ({C18 diacid-γGlu-AEEA-AEEA}-DKYVG[NMeL][Phe(4-F)]-NH2) is ____.
Reply | 25

Ask | # query: hNK3, IP3 Efficacy of entry CCCC[C@H](NC(=O)[C@H](CC(C)C)N(C)C(=O)CNC(=O)[C@@H](NC(=O)[C@H](Cc1ccccc1)NC(=O)[C@H](CCCCN)NC(=O)[C@H](CCC(=O)O)NC(=O)COCCOCCNC(=O)COCCOCCNC(=O)CC[C@H](NC(=O)CCCCCCCCCCCCCCCCC(=O)O)C(=O)O)C(C)C)C(N)=O [compound 335, *Glu;Lys;Phe;Val;Gly;NmLeu;Nle;NH2] ({C18 diacid-γGlu-AEEA-AEEA}-EKFVG[NMeL][Nle]-NH2)
Reply | 100

----------
Reported hNK3, IP3 Efficacy values for a set of compounds
# assayed target: hNK3R (Homo sapiens, UniProt P29371)
# Construct: host or cells: COS-7
# protocol: IP3 assay (inositol trisphosphate, 3H-myoinositol) in transiently transfected COS-7 cells
# Format: cell-based
# recorded conditions: COS-7 cells; figure legends: percent of 10^-6 M NKA
Numbered stars: 1 amine (or outer) side, 2 acyl side, 3 side chain; on linkers, the order of the positions; unused ones are H or OH. Square brackets hold non-standard residues; d marks the D form. Peptide text beside a SMILES is read from it. * marks the point of attachment. C18 diacid = O=C(O)CCCCCCCCCCCCCCCCC(=O)*; C16 diacid = O=C(O)CCCCCCCCCCCCCCC(=O)*; γGlu = O=C(O)[C@H](CCC(=O)[*:2])N[*:1]; NMeL = CN[C@@H](CC(C)C)C(=O)O; hSer = N[C@@H](CCO)C(=O)O; Nle = CCCC[C@H](N)C(=O)O; AEEA = NCCOCCOCC(=O)O; βAla = NCCC(=O)O
// note: answer is a bare numeric in %

Answered examples (3):
compound	readout kind	quantity unit	observed
CCCC[C@H](NC(=O)[C@H](CC(C)C)N(C)C(=O)CNC(=O)[C@@H](NC(=O)[C@H](Cc1ccc(O)cc1)NC(=O)[C@H](CCCCN)NC(=O)[C@H](CC(=O)O)NC(=O)COCCOCCNC(=O)COCCOCCNC(=O)CC[C@H](NC(=O)CCCCCCCCCCCCCCC(=O)O)C(=O)O)C(C)C)C(N)=O [compound 367, *Asp;Lys;Tyr;Val;Gly;NmLeu;Nle;NH2] ({C16 diacid-γGlu-AEEA-AEEA}-DKYVG[NMeL][Nle]-NH2)	hNK3, IP3 Efficacy	%	0
COCC[C@H](NC(=O)[C@H](CC(C)C)N(C)C(=O)CNC(=O)[C@@H](NC(=O)[C@H](Cc1ccccc1)NC(=O)[C@H](CCCCN)NC(=O)[C@H](CC(=O)O)NC(=O)COCCOCCNC(=O)COCCOCCNC(=O)CC[C@H](NC(=O)CCCCCCCCCCCCCCCCC(=O)O)C(=O)O)[C@@H](C)O)C(N)=O [compound 383, *Asp;Lys;Phe;Thr;Gly;NmLeu;Metox;NH2] ({C18 diacid-γGlu-AEEA-AEEA}-DKFTG[NMeL][hSer](Me)-NH2)	hNK3, IP3 Efficacy	%	60
CCCC[C@H](NC(=O)[C@H](CC(C)C)NC(=O)CCNC(=O)[C@@H](NC(=O)[C@H](Cc1ccccc1)NC(=O)[C@H](CO)NC(=O)[C@H](CC(=O)O)NC(=O)[C@@H](NC(=O)[C@H](CCCCN)NC(=O)COCCOCCNC(=O)COCCOCCNC(=O)CC[C@H](NC(=O)CCCCCCCCCCCCCCCCC(=O)O)C(=O)O)[C@@H](C)O)C(C)C)C(N)=O [compound 322] ({C18 diacid-γGlu-AEEA-AEEA}-KTDSFV[βAla]L[Nle]-NH2)	hNK3, IP3 Efficacy	%	80

Now consider the entry below.
Ask | Please give the measured hNK3, IP3 Efficacy for this compound: COc1ccc(C[C@H](NC(=O)[C@H](CC(C)C)N(C)C(=O)CNC(=O)[C@@H](NC(=O)[C@H](Cc2ccccc2)NC(=O)[C@H](CCCCN)NC(=O)[C@H](CC(=O)O)NC(=O)COCCOCCNC(=O)COCCOCCNC(=O)CC[C@H](NC(=O)CCCCCCCCCCCCCCCCC(=O)O)C(=O)O)C(C)C)C(N)=O)cc1 [compound 370, *Asp;Lys;Phe;Val;Gly;NmLeu;4-MeOPhe;NH2] ({C18 diacid-γGlu-AEEA-AEEA}-DKFVG[NMeL]Y(Me)-NH2)
Reply | 0
